Sourced from patent US20160145328A1

target: T1, protein A (UniProt P38507 37-477); test: Heat/Cool phage ELISA: phage-displayed VH, 80 C 10 min then 4 C 10 min, captured on coated protein A; signal as % of untreated sample
T1 construct: also called Protein A superantigen
Quantity Name: Retained binding to protein A (%)
# number only, unit % dropped from output

Item under review: DP47 VH S35D + A33D (other, name in Kabat numbering) VH: QVQLLESGGGLVQPGGSLRLSCAASGFTFSSYDMDWVRQAPGKGLEWVSAISGSGGSTYYADSVKGRFTISRDNSKNTLYLQMNSLRAEDTAVYYCAKSYGAFDYWGQGTLVTVSS . Reported Retained binding to protein A (%)?
40.3

Item under review: DP47 VH S35D + Y32D (other, name in Kabat numbering) VH: QVQLLESGGGLVQPGGSLRLSCAASGFTFSSDAMDWVRQAPGKGLEWVSAISGSGGSTYYADSVKGRFTISRDNSKNTLYLQMNSLRAEDTAVYYCAKSYGAFDYWGQGTLVTVSS . Reported Retained binding to protein A (%)?
61

Item under review: DP47 VH T28D + S30D (other, name in Kabat numbering) VH: QVQLLESGGGLVQPGGSLRLSCAASGFDFDSYAMSWVRQAPGKGLEWVSAISGSGGSTYYADSVKGRFTISRDNSKNTLYLQMNSLRAEDTAVYYCAKSYGAFDYWGQGTLVTVSS . Reported Retained binding to protein A (%)?
39.4

Item under review: DP47 VH T28D + A33D (other, name in Kabat numbering) VH: QVQLLESGGGLVQPGGSLRLSCAASGFDFSSYDMSWVRQAPGKGLEWVSAISGSGGSTYYADSVKGRFTISRDNSKNTLYLQMNSLRAEDTAVYYCAKSYGAFDYWGQGTLVTVSS . Reported Retained binding to protein A (%)?
62

Item under review: DP47 VH T28D + S35D (other, name in Kabat numbering) VH: QVQLLESGGGLVQPGGSLRLSCAASGFDFSSYAMDWVRQAPGKGLEWVSAISGSGGSTYYADSVKGRFTISRDNSKNTLYLQMNSLRAEDTAVYYCAKSYGAFDYWGQGTLVTVSS . Reported Retained binding to protein A (%)?
45.8
